Record form. Attribute: Rat CTGF kon. Fill in for each entry.
Biological target: T1, Rat CTGF (Rattus norvegicus, UniProt Q9R1E9)
T1 construct: purchased R&D Systems
T1 sequence (Q9R1E9 25-347): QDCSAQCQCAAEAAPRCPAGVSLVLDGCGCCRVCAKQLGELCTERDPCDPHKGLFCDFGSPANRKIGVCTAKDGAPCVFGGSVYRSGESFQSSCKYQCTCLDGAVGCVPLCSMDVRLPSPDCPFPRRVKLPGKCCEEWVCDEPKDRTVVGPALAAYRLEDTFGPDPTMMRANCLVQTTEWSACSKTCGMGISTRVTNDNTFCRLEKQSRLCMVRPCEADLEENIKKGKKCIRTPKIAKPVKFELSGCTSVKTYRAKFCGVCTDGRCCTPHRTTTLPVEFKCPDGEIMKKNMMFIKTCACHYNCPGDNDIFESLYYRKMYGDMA
Test: SPR binding kinetics and affinity, rat CTGF
Settings: 25° C., 1:1 binding model
Write the figure, then the unit, nothing else.

Molecule | Rat CTGF kon
SEQ ID NO: 29: parent CTGF-binding hNGAL lipocalin mutein (protein, lipocalin mutein) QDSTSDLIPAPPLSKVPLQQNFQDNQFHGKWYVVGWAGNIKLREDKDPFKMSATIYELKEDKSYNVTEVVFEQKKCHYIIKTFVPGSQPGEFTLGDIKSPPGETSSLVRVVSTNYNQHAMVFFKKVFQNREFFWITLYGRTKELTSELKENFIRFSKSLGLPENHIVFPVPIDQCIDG | 176000 M⁻¹ s⁻¹

For each entry beneath this line, provide reported Rat CTGF kon.
1. SEQ ID NO: 25: parent CTGF-binding hNGAL lipocalin mutein (protein, lipocalin mutein) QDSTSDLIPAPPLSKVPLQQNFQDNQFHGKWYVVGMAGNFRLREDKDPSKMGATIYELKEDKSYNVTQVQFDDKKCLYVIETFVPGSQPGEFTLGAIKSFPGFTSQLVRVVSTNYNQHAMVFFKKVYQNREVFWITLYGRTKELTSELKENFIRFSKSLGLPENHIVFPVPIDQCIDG
2. SEQ ID NO: 31: optimized CTGF-binding hNGAL lipocalin mutein (protein, lipocalin mutein) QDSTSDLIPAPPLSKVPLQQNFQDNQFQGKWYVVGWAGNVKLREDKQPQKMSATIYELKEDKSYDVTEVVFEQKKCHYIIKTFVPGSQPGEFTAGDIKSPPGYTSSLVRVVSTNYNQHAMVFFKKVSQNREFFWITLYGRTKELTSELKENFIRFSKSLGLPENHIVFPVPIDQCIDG

OUT:
1. 46500 M⁻¹ s⁻¹
2. 223000 M⁻¹ s⁻¹
